Source listed as patent US20170145113A1.

target.or.system: T1, His-tagged human HtrA1 protease domain (human, UniProt Q92743 161-367)
T1 construct: His-tagged protease domain; also called huHtrA1-PD-His; huHtrA1-PD
T1 sequence (Q92743 other isoform, or with tags, fused parts or gaps limits assumed): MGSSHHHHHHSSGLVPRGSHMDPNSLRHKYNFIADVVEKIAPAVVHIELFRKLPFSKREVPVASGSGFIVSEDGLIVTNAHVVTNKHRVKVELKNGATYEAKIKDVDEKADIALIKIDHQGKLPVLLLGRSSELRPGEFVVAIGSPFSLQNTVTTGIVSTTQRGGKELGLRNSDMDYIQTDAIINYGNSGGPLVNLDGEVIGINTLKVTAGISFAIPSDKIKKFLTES
test.description: SPR (BIACORE T200), huHtrA1-PD-His captured by anti-His, Fab injected
# key: entry, value: kon
value.kind: kon (M⁻¹ s⁻¹)

INSERT INTO results (binder, recorded_value) VALUES
  ('h15H6.v2 variant LC3 (LC-N31E) Fab (Fab, V domains shown, Fab-Flag tag fusion from 293T cells) VH: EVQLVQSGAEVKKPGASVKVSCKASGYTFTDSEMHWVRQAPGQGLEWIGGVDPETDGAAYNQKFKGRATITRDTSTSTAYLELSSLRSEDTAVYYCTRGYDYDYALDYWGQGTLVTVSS VL: DIQMTQSPSSLSASVGDRVTITCRASSSVEFIHWYQQKPGKAPKPLISATSNLASGVPSRFSGSGSGTDFTLTISSLQPEDFATYYCQQWSSNPWTFGQGTKVEIK', 127000),
  ('combination mutant LC7.HC1 Fab (Fab, V domains shown, Fab) VH: EVQLVQSGAEVKKPGASVKVSCKASGYTFKDSEMHWVRQAPGQGLEWIGGVDPETDGAAYNQKFKGRATITRDTSTSTAYLELSSLRSEDTAVYYCTRGYDYDYALDYWGQGTLVTVSS VL: DIQMTQSPSSLSASVGDRVTITCRASSSVNFIHWYQQKPGKAPKPLISATSNLASGVPSRFSGSGSGTDFTLTISSLQPEDFATYYCQQWYSNPWTFGQGTKVEIK', 347000),
  ('combination mutant LC3.HC1 Fab (Fab, V domains shown, Fab) VH: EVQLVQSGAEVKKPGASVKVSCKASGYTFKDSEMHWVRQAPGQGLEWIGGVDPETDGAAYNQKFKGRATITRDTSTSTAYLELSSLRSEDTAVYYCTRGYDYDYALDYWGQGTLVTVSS VL: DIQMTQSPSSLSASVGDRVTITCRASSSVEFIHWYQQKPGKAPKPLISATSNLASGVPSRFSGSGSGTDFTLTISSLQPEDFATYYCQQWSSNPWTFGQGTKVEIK', 885000);
